- assay.target: T1, human RANKL protein (human, UniProt O14788 140-317, limits assumed)
- T1 sequence (looked up): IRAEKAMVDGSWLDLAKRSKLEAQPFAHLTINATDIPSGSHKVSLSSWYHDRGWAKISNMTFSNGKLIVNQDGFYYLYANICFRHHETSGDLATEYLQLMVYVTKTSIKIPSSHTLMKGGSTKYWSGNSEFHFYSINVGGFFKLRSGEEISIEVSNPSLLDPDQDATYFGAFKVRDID
- assay.comment: competition ELISA: RANKL (0.5 ug/ml) pre-incubated with the antibody, then binding to coated human RANK (8 ug/ml) detected; blocked partner RANK
quantity.name: IC50 (µg/mL)
Please reply with the bare figure in µg/mL and do not write the unit itself.

Kindly note the recorded IC50 for clone EBI-51-22 rabbit anti-RANKL antibody (antibody, V domains shown) VH: QSVEESGGRLVTPGTLLTLTCTVSGFSLSTDVLSWVRQAPGKGLEWIGYTWSGGSTYYASWAKGRFTISKTSSTTVDLKITSPTTEDTATYFCARGFNPFDPWGPGTLVTVSS VL: DMTQTPASVSDPVGGTVTIKCQASQNIGSNLAWYQQKPGQRPKLLIYRASTLASGVSSRFKGSGSGTQFTLTISDLECADAATYYCQQGYSAGNVDNNAFGGGTEVVVK , which is 0.0439

Kindly note the recorded IC50 for clone EBI-51-23 rabbit anti-RANKL antibody (antibody, V domains shown) VH: QSVKESEGGLFKPTDTLTLTCTVSGFSLSIYEISWVRQAPGKELEWIGYIGVGGVTYYANWAKSRSTITRNTNQKMVALKMTSLTAADTATYFCARGYNPFDLWGPGTLVTVSS VL: DMTQTPASVEVAVGGTVTINCQASQNIGSNLAWYQQKPGQPPKLLIYKASTLASGVPSRLKGSGSGTEFTLTISGVQCDDAATYYCQQGYTTGNVDNPFGGGTEVVVK , which is 0.0482

Kindly note the recorded IC50 for clone EBI-51-4 rabbit anti-RANKL antibody (antibody, V domains shown) VH: QSVEESGGRLVKPGESLTLTCTASGFSLSSDVISWVRQAPGKGLEWIGYGWSGGPTYYANWAKGRFTISKTSSTTVDLKITSPTTEDTATYFCARGFNPFDPWGPGTLVTVSS VL: DMTQTPASVSEPVGGTVTIKCQASQNIGSNLAWYQQKPGQRPKLLIYRASTLASGVSSRFKGSGSGTQFTLTISDLECADAATYYCQQGYSAGNVDNSFGGGTEVVVK , which is 0.0388
